# assay_name: Tmax in ICR mouse at 25 mg/kg, po
# Assay type: ADME, organism-based
# condition_info: in vivo
reported_endpoint: Tmax (min)

- molecular_string: "O=S(=O)(c1ccc(F)cc1)N(CCCN1CCC(c2noc3cc(F)ccc23)CC1)C1COC1"
  reported_result: 15

* * *

# assay_name: Drug concentration in ICR mouse brain at 1 mg/kg, iv measured after 4 hrs
# Type: ADME, organism-based

- molecular_string: "O=S(=O)(c1ccc(F)cc1)N(CCCN1CCC(c2noc3cc(F)ccc23)CC1)C1COC1"
  concentration at 4 h [ng/g]: 10.7

* * *

# assay_target: D(2) dopamine receptor (Homo sapiens)
# Sequence (P14416 whole entry): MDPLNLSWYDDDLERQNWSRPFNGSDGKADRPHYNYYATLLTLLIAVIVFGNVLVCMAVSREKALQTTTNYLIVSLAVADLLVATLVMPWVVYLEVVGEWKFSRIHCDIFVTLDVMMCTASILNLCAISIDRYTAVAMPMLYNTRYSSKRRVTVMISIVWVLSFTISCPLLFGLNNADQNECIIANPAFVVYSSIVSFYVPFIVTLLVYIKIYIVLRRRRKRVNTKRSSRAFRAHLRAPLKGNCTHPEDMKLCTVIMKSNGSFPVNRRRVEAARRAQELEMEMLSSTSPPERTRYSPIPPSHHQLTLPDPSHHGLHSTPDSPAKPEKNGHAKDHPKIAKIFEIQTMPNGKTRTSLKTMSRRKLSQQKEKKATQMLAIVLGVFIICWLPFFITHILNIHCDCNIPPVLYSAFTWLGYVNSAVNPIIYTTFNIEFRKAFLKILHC
# assay_name: Antagonist activity at human D2 receptor expressed in HEK293 cells incubated for 60 mins by Eu-cAMP tracer based LANCE ultra cAMP assay
# Assay type: cell-based
pKi: −log10 of the molar value.

- molecular_string: "O=C(CN1CCN(CCCc2c[nH]c3ccc(F)cc23)CC1)N(c1ccccc1)C1CCCCC1"
  pKi: 5.67

* * *

# assay_name: AUC (0 to 24 hrs) in ICR mouse at 5 mg/kg, iv
# Format: ADME, organism-based
# Set-up: time < 24 hr, route intravenous, dose 5 mg/kg
# condition_info: in vivo
reported_endpoint: AUC(0-t) at 24 h (ng·h/mL)

- molecular_string: "O=S(=O)(c1ccc(F)cc1)N(CCCN1CCC(c2noc3cc(F)ccc23)CC1)C1COC1"
  reported_result: 829

* * *

# assay_name: Plasma concentration in ICR mouse at 1 mg/kg, iv measured after 1 hr
# Format: ADME, organism-based

- molecular_string: "O=S(=O)(c1ccc(F)cc1)N(CCCN1CCC(c2noc3cc(F)ccc23)CC1)C1COC1"
  concentration at 1 h: "75.4 ng/mL"

* * *

# assay_name: Half life in ICR mouse at 5 mg/kg, iv
# Assay type: ADME, organism-based
# condition_info: in vivo

- molecular_string: "O=S(=O)(c1ccc(F)cc1)N(CCCN1CCC(c2noc3cc(F)ccc23)CC1)C1COC1"
  half-life / min: 32.4

* * *

# assay_target: 5-hydroxytryptamine receptor 1A (Homo sapiens)
# Sequence (P08908 whole entry): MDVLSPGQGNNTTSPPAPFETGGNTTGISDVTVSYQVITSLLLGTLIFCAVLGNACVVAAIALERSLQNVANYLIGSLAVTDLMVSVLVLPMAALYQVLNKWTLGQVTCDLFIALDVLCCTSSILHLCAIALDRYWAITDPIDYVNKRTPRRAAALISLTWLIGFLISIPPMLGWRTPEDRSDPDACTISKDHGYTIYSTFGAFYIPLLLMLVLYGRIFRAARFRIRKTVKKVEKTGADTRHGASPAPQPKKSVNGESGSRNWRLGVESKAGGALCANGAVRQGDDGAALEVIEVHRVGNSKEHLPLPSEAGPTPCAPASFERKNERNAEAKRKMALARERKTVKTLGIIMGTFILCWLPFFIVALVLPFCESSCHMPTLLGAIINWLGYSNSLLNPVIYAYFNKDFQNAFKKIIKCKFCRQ
# assay_name: Agonist activity at human 5H1A receptor expressed in HEK293 cells incubated for 60 mins by Eu-cAMP tracer based LANCE ultra cAMP assay
# Assay type: functional, cell-based
# condition_info: read-out: EC50

- molecular_string: "CC(C)N(CCCN1CCN(c2cccc(Cl)c2Cl)CC1)C(=O)c1ccccc1"
  EC50 [µM]: 0.0461
- molecular_string: "CCCN(CCCN1CCN(c2ccccn2)CC1)C(=O)c1ccccc1"
  EC50 [µM]: 0.0545
- molecular_string: "O=C(c1ccccc1)N(CCCN1CCN(c2cccc(Cl)c2Cl)CC1)CC1CC1"
  EC50 [µM]: 0.175
- molecular_string: "O=C(c1ccccc1)N(CCCN1CCN(c2cccc(Cl)c2Cl)CC1)C1COC1"
  EC50 [µM]: 0.583
- molecular_string: "O=C(c1ccccc1)N(CCCN1CCN(c2ccccn2)CC1)C1COC1"
  EC50 [µM]: 0.374

* * *

# assay_target: 5-hydroxytryptamine receptor 2A (Homo sapiens, UniProt P28223)
# Sequence (P28223 whole entry): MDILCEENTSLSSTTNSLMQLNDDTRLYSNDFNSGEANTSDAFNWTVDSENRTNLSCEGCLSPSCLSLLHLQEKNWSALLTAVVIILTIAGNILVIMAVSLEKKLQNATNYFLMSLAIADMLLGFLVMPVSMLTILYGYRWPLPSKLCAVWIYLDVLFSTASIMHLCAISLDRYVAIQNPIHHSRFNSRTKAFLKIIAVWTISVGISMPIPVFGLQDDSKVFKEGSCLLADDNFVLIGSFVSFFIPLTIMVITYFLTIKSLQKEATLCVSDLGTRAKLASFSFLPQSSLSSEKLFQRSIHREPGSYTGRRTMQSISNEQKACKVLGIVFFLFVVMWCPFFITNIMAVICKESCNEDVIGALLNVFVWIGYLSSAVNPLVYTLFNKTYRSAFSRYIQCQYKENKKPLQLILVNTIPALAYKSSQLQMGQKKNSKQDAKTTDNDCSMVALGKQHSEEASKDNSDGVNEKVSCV
# assay_name: Antagonist activity at human 5HT2A receptor expressed in CHO-K1 cells measured after 15 mins by FLIPR assay
# Type: cell-based
# condition_info: read-out: IC50

- molecular_string: "N#Cc1ccc(S(=O)(=O)N(CCCN2CCC(c3noc4cc(F)ccc34)CC2)C2COC2)cc1"
  unit_abbreviation: "nM"
  IC50: 11.3
- molecular_string: "O=S(=O)(c1ccc(C(F)(F)F)cc1)N(CCCN1CCC(c2noc3cc(F)ccc23)CC1)C1COC1"
  unit_abbreviation: "nM"
  IC50: 92.7
- molecular_string: "O=S(=O)(c1ccc(Cl)cc1)N(CCCN1CCC(c2noc3cc(F)ccc23)CC1)C1COC1"
  unit_abbreviation: "nM"
  IC50: 34.6
- molecular_string: "O=S(=O)(c1ccc(F)cc1)N(CCCN1CCC(c2noc3cc(F)ccc23)CC1)C1COC1"
  unit_abbreviation: "nM"
  IC50: 15.1
- molecular_string: "O=C(c1ccccc1)N(CCCN1CCC(c2noc3cc(F)ccc23)CC1)C1COC1"
  unit_abbreviation: "nM"
  IC50: 18.8
- molecular_string: "O=S(=O)(c1ccccc1)N(CCCN1CCC(c2noc3cc(F)ccc23)CC1)C1COC1"
  unit_abbreviation: "nM"
  IC50: 9.3
- molecular_string: "CC(C)N(CCCN1CCC(c2noc3cc(F)ccc23)CC1)C(=O)c1ccccc1"
  unit_abbreviation: "nM"
  IC50: 11.6
- molecular_string: "CC(C)N(CCCN1CCN(c2cccc(Cl)c2Cl)CC1)C(=O)c1ccccc1"
  unit_abbreviation: "nM"
  IC50: 2010
- molecular_string: "O=C(c1ccccc1)N(CCCN1CCN(c2cccc(Cl)c2Cl)CC1)C1COC1"
  unit_abbreviation: "nM"
  IC50: 2180

Where do these numbers come from? They come from ChEMBL document CHEMBL4680230.
